Test system: HeLa Kyoto
Assay: solubility in G1/S (NP-40 vs SDS abundance) (log2 ratio); higher = more soluble
Conditions: cell cycle stage: G1/S
Consider the following sequences and their measured solubility in G1/S (log2) readings.
Keep the answer to the number alone.

GET /values?readout=solubility in G1/S (log2)&item= MKQLPVLEPGDKPRKATWYTLTVPGDSPCARVGHSCSYLPPVGNAKRGKVFIVGGANPNRSFSDVHTMDLGKHQWDLDTCKGLLPRYEHASFIPSCTPDRIWVFGGANQSGNRNCLQVLNPETRTWTTPEVTSPPPSPRTFHTSSAAIGNQLYVFGGGERGAQPVQDTKLHVFDANTLTWSQPETLGNPPSPRHGHVMVAAGTKLFIHGGLAGDRFYDDLHCIDISDMKWQKLNPTGAAPAGCAAHSAVAMGKHVYIFGGMTPAGALDTMYQYHTEEQHWTLLKFDTLLPPGRLDHSMCIIPWPVTCASEKEDSNSLTLNHEAEKEDSADKVMSHSGDSHEESQTATLLCLVFGGMNTEGEIYDDCIVTVVD [RABEPK]
0.201

###

Test system: HeLa Kyoto
Assay: melting temperature (median over replicates), in situ; higher = more thermally stable
Conditions: cell cycle stage: mitosis
endpoint label: melting temperature (°C)
Write it as a number; the unit °C goes unstated.

Known results for sequences:
sequence chain	melting temperature [°C]
MSDIGDWFRSIPAITRYWFAATVAVPLVGKLGLISPAYLFLWPEAFLYRFQIWRPITATFYFPVGPGTGFLYLVNLYFLYQYSTRLETGAFDGRPADYLFMLLFNWICIVITGLAMDMQLLMIPLIMSVLYVWAQLNRDMIVSFWFGTRFKACYLPWVILGFNYIIGGSVINELIGNLVGHLYFFLMFRYPMDLGGRNFLSTPQFLYRWLPSRRGGVSGFGVPPASMRRAADQNGGGGRHNWGQGFRLGDQ [DERL1]	55.3
MVGGGGVGGGLLENANPLIYQRSGERPVTAGEEDEQVPDSIDAREIFDLIRSINDPEHPLTLEELNVVEQVRVQVSDPESTVAVAFTPTIPHCSMATLIGLSIKVKLLRSLPQRFKMDVHITPGTHASEHAVNKQLADKERVAAALENTHLLEVVNQCLSARS [FAM96B]	52.7

Kindly consider the entry below.
Form: Entry = MAQESPKNSAAEIPVTSNGEVDDSREHSFNRDLKHSLPSGLGLSETQITSHGFDNTKEGVIEAGAFQGSPAPPLPSVMSPSRVAASRLAQQGSDLIVPAGGQRTQTKSGPVILADEIKNPAMEKLELVRKWSLNTYKCTRQIISEKLGRGSRTVDLELEAQIDILRDNKKKYENILKLAQTLSTQLFQMVHTQRQLGDAFADLSLKSLELHEEFGYNADTQKLLAKNGETLLGAINFFIASVNTLVNKTIEDTLMTVKQYESARIEYDAYRTDLEELNLGPRDANTLPKIEQSQHLFQAHKEKYDKMRNDVSVKLKFLEENKVKVLHNQLVLFHNAIAAYFAGNQKQLEQTLKQFHIKLKTPGVDAPSWLEEQ [ARFIP1] | System = HeLa Kyoto | melting temperature = ____
50.9

###

Test system: HeLa Kyoto
Assay: solubility in G1/S (NP-40 vs SDS abundance) (log2 ratio); higher = more soluble
Settings: cell cycle stage: G1/S
// label = Criterion met if solubility in G1/S (log2) is not less than -0.03, otherwise Criterion not met

Would you please look over these solved cases?
sequence chain	target or system	label class
MKVLLLKDAKEDDCGQDPYIRELGLYGLEATLIPVLSFEFLSLPSFSEKLSHPEDYGGLIFTSPRAVEAAELCLEQNNKTEVWERSLKEKWNAKSVYVVGNATASLVSKIGLDTEGETCGNAEKLAEYICSRESSALPLLFPCGNLKREILPKALKDKGIAMESITVYQTVAHPGIQGNLNSYYSQQGVPASITFFSPSGLTYSLKHIQELSGDNIDQIKFAAIGPTTARALAAQGLPVSCTAESPTPQALATGIRKALQPHGCC [UROS]	HeLa Kyoto	Criterion met
MGSAKSVPVTPARPPPHNKHLARVADPRSPSAGILRTPIQVESSPQPGLPAGEQLEGLKHAQDSDPRSPTLGIARTPMKTSSGDPPSPLVKQLSEVFETEDSKSNLPPEPVLPPEAPLSSELDLPLGTQLSVEEQMPPWNQTEFPSKQVFSKEEARQPTETPVASQSSDKPSRDPETPRSSGSMRNRWKPNSSKVLGRSPLTILQDDNSPGTLTLRQGKRPSPLSENVSELKEGAILGTGRLLKTGGRAWEQGQDHDKENQHFPLVES [CDCA3]	HeLa Kyoto	Criterion not met
MAAVVAATALKGRGARNARVLRGILAGATANKASHNRTRALQSHSSPEGKEEPEPLSPELEYIPRKRGKNPMKAVGLAWYSLYTRTWLGYLFYRQQLRRARNRYPKGHSKTQPRLFNGVKVLPIPVLSDNYSYLIIDTQAQLAVAVDPSDPRAVQASIEKEGVTLVAILCTHKHWDHSGGNRDLSRRHRDCRVYGSPQDGIPYLTHPLCHQDVVSVGRLQIRALATPGHTQGHLVYLLDGEPYKGPSCLFSGDLLFLSGCGRTFEGNAETMLSSLDTVLGLGDDTLLWPGHEYAEENLGFAGVVEPENLARERKMQWVQRQRLERKGTCPSTLGEERSYNPFLRTHCLALQEALGPGPGPTGDDDYSRAQLLEELRRLKDMHKSK [PNKD]	HeLa Kyoto	Criterion not met
MPFLELDTNLPANRVPAGLEKRLCAAAASILGKPADRVNVTVRPGLAMALSGSTEPCAQLSISSIGVVGTAEDNRSHSAHFFEFLTKELALGQDRILIRFFPLESWQIGKIGTVMTFL [DDT]	HeLa Kyoto	Criterion met

solubility in G1/S (log2) >= -0.03 for MLQGHSSVFQALLGTFFTWGMTAAGAALVFVFSSGQRRILDGSLGFAAGVMLAASYWSLLAPAVEMATSSGGFGAFAFFPVAVGFTLGAAFVYLADLLMPHLGAAEDPQTTLALNFGSTLMKKKSDPEGPALLFPESELSIRIGRAGLLSDKSENGEAYQRKKAAATGLPEGPAVPVPSRGNLAQPGGSSWRRIALLILAITIHNVPEGLAVGVGFGAIEKTASATFESARNLAIGIGIQNFPEGLAVSLPLRGAGFSTWRAFWYGQLSGMVEPLAGVFGAFAVVLAEPILPYALAFAAGAMVYVVMDDIIPEAQISGNGKLASWASILGFVVMMSLDVGLG [SLC39A11] ?
Criterion met
